- TEST SYSTEM: T1, human CD47 expressed on cells (CD47 expressing CHO cells, Jurkat, HL60, DLD1, Raji) (human, UniProt Q08722 19-292)
- T1 construct: also called CHO-CD47; IAP
- MEASUREMENT DESCRIPTION: flow cytometry on human red blood cells, donor 2, MFI
Give measured EC50 (read off the curve) for each item. Keep answers brief.

1) H-ABU 11 (antibody, V domains shown) VH: QVQLVQSGAEVKKPGASVKVSCKASGYTFTDFYINWVRQAPGQRLEWMGWIYLGSGNTKYNEKFKGRVTITRDTSASTAYMELSSLRSEDTAVYYCARREERGFAYWGQGTLVTVSS VL: DIVMTQSPDSLAVSLGERATINCKSSQSLLSSSQKNYLAWYQQKPGQPPKLLIYWASTRDSGVPDRFSGSGSGTDFTLTISSLQAEDVAVYYCQQFYSYPLTFGQGTKVEIK	~1 nM
2) Positive 3 (analogue antibody) (antibody, V domains shown) VH: QMQLVQSGAEVKKTGSSVKVSCKASGFNIKDYYLHWVRQAPGQALEWMGWIDPDQGDTEYAQKFQDRVTITRDRSMSTAYMELSSLRSEDTAMYYCNAAYGSSSYPMDYWGQGTTVTV VL: NIQMTQSPSAMSASVGDRVTITCKASQDIHRYLSWFQQKPGKVPKHLIYRANRLVSGVPSRFSGSGSGTEFTLTISSLQPEDFATYYCLQYDEFPYTFGGGTKVEIK	~1 nM

Q: Which measured EC50 (read off the curve) value corresponds to H-ABU 43 (antibody, V domains shown, Humanized antibody) VH: QVQLVQSGAEVKKPGASVKVSCKTSGYSFTNYWMQWVRQAPGQGLEWMGMIDPSDSESRLNQKFKDRVTMTRDTSTSTAYMELSSLRSEDTAVYYCARRGSPMITSFAYWGQGTLVTVSS VL: DVQITQSPSSLSASVGDRVTITCRASKNIGKYLAWFQQKPGKTNKLLIYSGSTLQSGIPSRFSGSGSGTDFTLTISSLQPEDFATYYCQQHNEYPYTFGGGTKVEIK ?
A: ~1 nM
